- system: KRAS(G12D)/SOS1 (Homo sapiens, UniProt P01116, G12D)
- Sequence (P01116 1-188 isoform P01116-2 G12D): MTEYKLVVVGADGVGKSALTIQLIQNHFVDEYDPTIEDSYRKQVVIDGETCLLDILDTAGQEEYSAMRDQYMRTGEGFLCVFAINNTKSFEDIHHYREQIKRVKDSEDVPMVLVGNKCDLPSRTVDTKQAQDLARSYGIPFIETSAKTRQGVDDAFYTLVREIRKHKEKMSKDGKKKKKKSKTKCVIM
- assay protocol: KRAS(G12D)/SOS1 homogeneous time-resolved fluorescence (HTRF) assay
- experimental context: absence of GTP; 4° C., 3 hr
value type: IC50

In the examples that follow, each entry is paired with its recorded IC50.
INSERT INTO results (smiles_text, value_type, result) VALUES
  ('C#Cc1cccc2cccc(-c3ncc4c(N5CC6CCC(C5)N6)nc(OCCN5CCN(CCN(CC)C(=O)c6cc(C(C)C)c(O)cc6O)CC5)nc4c3F)c12', 'IC50', '100 to 1000 nM'),
  ('CCNC(=O)c1nnc(-c2cc(C(C)C)c(O)cc2O)n1-c1ccc(CN(C)[C@@H]2CN3CCC[C@@]3(COc3nc(N4CC5CCC(C4)N5)c4cnc(-c5cc(O)cc6ccccc56)c(F)c4n3)C2)cc1', 'IC50', '< 100 nM');

Give one value of IC50 per listed molecule.
1. COc1cccc2cccc(-c3ncc4c(N5CC6CCC(C5)N6)nc(OC[C@@H]5C[C@H](N6CCN(Cc7ccc8c(c7)CN(C(=O)c7cc(C(C)C)c(O)cc7O)C8)CC6)CN5C)nc4c3F)c12
2. C#Cc1cccc2cc(O)cc(-c3ncc4c(N5CC6CCC(C5)N6C(=O)C(F)(F)F)nc(OCC5(CN6CCN(CC7CCN(Cc8ccc(-n9c(C(=O)NCC(F)(F)F)nnc9-c9cc(C(C)C)c(O)cc9O)cc8)CC7)CC6)CC5)nc4c3F)c12
3. Cc1cccc2cccc(-c3ncc4c(N5CC6CCC(C5)N6)nc(OC[C@@H]5C[C@H](N6CCC(C(=O)N7CCN(Cc8ccc(-n9c(O)nnc9-c9cc(C(C)C)c(O)cc9O)cc8)CC7)CC6)CN5C)nc4c3F)c12
4. C#Cc1c(F)ccc2cc(O)cc(-c3ncc4c(N5CC6CCC(C5)N6)nc(OCC5(CN6CCC(C7CCN(Cc8ccc9c(c8)CN(C(=O)c8cc(C(C)C)c(O)cc8O)C9)CC7)CC6)CC5)nc4c3F)c12
5. C#Cc1c(F)ccc2cc(O)cc(-c3ncc4c(N5CC6CCC(C5)N6)nc(OCC5(CN6CCN(CC7CCN(Cc8ccc(-n9c(C(=O)NCC)nnc9-c9cc(C(C)C)c(O)cc9O)cc8)CC7)CC6)CC5)nc4c3F)c12

100 to 1000 nM
100 to 1000 nM
100 to 1000 nM
< 100 nM
< 100 nM

Give one value of IC50 per listed molecule.
1. C#Cc1cccc2cccc(-c3ncc4c(N5CC6CCC(C5)N6)nc(OCCN5CCN(C(=O)C6CCN(Cc7ccc(-n8c(O)nnc8-c8cc(C(C)C)c(O)cc8O)cc7)CC6)CC5)nc4c3F)c12
2. C#Cc1cccc2cc(O)cc(-c3ncc4c(N5CC6CCC(C5)N6)nc(OCC5(CN6CCN(CC7CCN(c8ccc9c(c8)CN(C(=O)c8cc(C(C)C)c(O)cc8O)C9)CC7)CC6)CC5)nc4c3F)c12

100 to 1000 nM
< 100 nM
